# testedSystem: P. falciparum apicoplast DNA polymerase (Pf-apPOL) (Plasmodium falciparum, UniProt Q8ILY1)
# Sequence (Q8ILY1 entry or part of it): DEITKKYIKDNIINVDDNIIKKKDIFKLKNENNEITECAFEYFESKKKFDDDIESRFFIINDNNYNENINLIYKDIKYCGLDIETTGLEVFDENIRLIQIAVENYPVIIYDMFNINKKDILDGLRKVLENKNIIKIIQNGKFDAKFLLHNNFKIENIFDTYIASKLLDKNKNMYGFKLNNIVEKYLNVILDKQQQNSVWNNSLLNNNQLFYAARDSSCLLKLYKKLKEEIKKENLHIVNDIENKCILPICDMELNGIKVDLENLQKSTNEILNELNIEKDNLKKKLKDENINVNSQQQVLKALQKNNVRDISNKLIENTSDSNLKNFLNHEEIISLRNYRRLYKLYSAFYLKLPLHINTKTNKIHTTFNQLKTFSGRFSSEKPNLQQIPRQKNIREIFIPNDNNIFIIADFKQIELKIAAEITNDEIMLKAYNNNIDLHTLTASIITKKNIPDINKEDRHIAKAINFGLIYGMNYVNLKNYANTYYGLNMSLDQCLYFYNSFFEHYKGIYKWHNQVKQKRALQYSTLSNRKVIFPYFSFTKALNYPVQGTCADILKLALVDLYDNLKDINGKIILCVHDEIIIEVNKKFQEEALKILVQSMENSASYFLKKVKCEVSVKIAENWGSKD
# testProtocol: Fluorescence-based high-throughput DNA polymerase assay (molecular beacon), primary screen and dose-response;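 note: test concentration in µM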
# Format: biochemical
# recordedConditions: DRC-2, 180', concentration 5 (unit not given)
Mark 1.0 for reported % inhibition apPOL 180' of 10% or greater; mark 0.0 for anything smaller.

In plain terms: is recorded % inhibition apPOL 180' at least 10% for COc1ccc2c(c1)C(c1ccccc1OC)CC(=O)O2 (centres unmarked) ?
0.0

Is % inhibition apPOL 180' for CCCCCCCCCCCCCCCCCC(=O)CCN(C)C at or above 10%?
0.0

Is reported % inhibition apPOL 180' greater than or equal to 10% here: O=[N+]([O-])/C=C/c1ccc(-c2ccc(Br)cc2)o1
1.0

Decide: is the reported value of % inhibition apPOL 180' for Oc1cccc2ccc(/C=C/c3ccc4c(c3)OCO4)nc12 equal to or greater than 10%?
1.0
